system: MV4;11 AML cells, XTT viability; experiment: MV4,11 leukemia cell growth inhibition, dose response, XTT absorbance (AID 1794807)
Calls of active or inactive are those of the source.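 How the source made its calls: active means half-maximal effective concentration EC50 under 50 µM in the live-cell XTT test; inactive means the rest.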
// allowed return values: y (active), n (inactive)

Would you please look over these solved cases?
>>> assignedlabel("O=C(NCC1CCNCC1)c1cc2cc(-c3ccc(N4CCCCC4)cc3)ccc2[nH]1")
"y"
>>> assignedlabel("NCc1ccc(-c2ccc3cc(C(=O)NCC4CCNCC4)oc3c2)cc1")
"n"
>>> assignedlabel("O=C(NCC1CCNCC1)c1c[nH]c2cc(-c3ccc(N4CCCCC4)cc3)ccc12")
"y"
>>> assignedlabel("O=C(NCC1CCNCC1)c1cc2ccc(-c3ccc(N4CCCC4)cc3)cc2s1")
"y"
>>> assignedlabel("O=C(NCC1CCNCC1)c1c[nH]c2cc(-c3ccc(N4CCCC4)cc3)ccc12")
"y"

For "O=C(NCC1CCNCC1)c1coc2cc(-c3ccc(N4CCCCC4)cc3)ccc12" , what call appears in the results of this test?
y

Each compound tested received a call. Report the one for "O=C(NCC1CCNCC1)c1cc2cc(-c3cn[nH]c3)ccc2[nH]1" .
n

Identify the outcome logged in this assay for the compound shown: "O=C(NCC1CCNCC1)c1cc2ccc(-c3ccc(N4CCCCC4)cc3)cc2s1"
y

Kindly provide the recorded test outcome for the following compound: "NC(=O)c1ccc(-c2ccc3cc(C(=O)NCC4CCNCC4)sc3c2)cc1"
n

In this assay, the call recorded for "O=C(NCC1CCNCC1)c1cc2cc(-c3ccc(N4CCCCC4)cc3)ccc2s1" was what?
y
